src = ChEMBL document CHEMBL5143518

# METHOD SUMMARY: Selectivity index, ratio of LC50 for cytotoxicity against human THP-1 cells to EC50 of leishmanicidal activity against axenic amastigote stage of Leishmania infantum MCAN/ES/89/IPZ229/1/89

[
  {
    "CPD SMILES": "CCc1cc2c3ccc(Br)n3c3cc(Cl)ccc3[n+]2nc1CC",
    "selectivity ratio": 85.6
  },
  {
    "CPD SMILES": "CCCCCCCCCCCCCCCCOP(=O)([O-])OCC[N+](C)(C)C",
    "selectivity ratio": 14.8
  },
  {
    "CPD SMILES": "CCc1cc2c3cccn3c3cc(Cl)ccc3[n+]2nc1CC",
    "selectivity ratio": 304
  }
]
